Data credit: patent US20240309093A1

EC50 by entry:
system: T1, recombinant human PD-1-his protein (human, UniProt Q15116 25-167)
T1 construct: also called hPD-1-his; not shown: his tag
T1 sequence (Q15116 25-167 limits assumed): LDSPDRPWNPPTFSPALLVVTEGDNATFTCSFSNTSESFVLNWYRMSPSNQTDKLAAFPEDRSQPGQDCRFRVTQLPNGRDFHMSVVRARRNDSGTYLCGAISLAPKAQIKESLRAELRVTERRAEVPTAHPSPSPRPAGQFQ
assay.procedure: ELISA (first round of humanization); PD-1-his coated 2 µg/mL, anti-human IgG Fc-HRP
Protocol: 96-well ELISA plates were coated with 2 μg/mL of recombinant human PD-1-his antigen protein at 30 μL/well at 4° C. overnight. The plates were washed three times with PBST. 5% PBS-Milk was added and incubated at room temperature for 2 h. The plates were washed three times with PBST. […] The OD450 absorbance value was read by a microplate reader.
Answer in µg/mL, number only, no unit symbol.

binder	endpoint.result
MHPD1-A-H2 Fc (Fc fusion, not shown: a dimerising Fc or GST; small tags and cut ends, First round of humanization of MHPD1-A; also called humanized nanobody-Fc fusion protein) VHH: QVQLVESGGGSVQVGGSLRLSCAASGSDPSIYAMGWFRQAPGKEHEFVAGIGWSAATTYYADSVKGRFGISRDNTKNTVALLMNSLRAEDTAIYYCAADLDHSGFDYWGQGTQVTVSS	0.22

Form field: reported EC50 of MHPD1-A-H1 Fc (Fc fusion, not shown: a dimerising Fc or GST; small tags and cut ends, First round of humanization of MHPD1-A; also called humanized nanobody-Fc fusion protein) VHH: QVQLVESGGGSVQPGGSLTLSCAASGSDPSIYAMGWFRQAPGKEHEFVAGIGWSAATTYYADSVKGRFGISRDNTKNTVALLMNSLKPEDTAIYYCAADLDHSGFDYWGQGTLVTVSS 0.24

Entry MHPD1-A-H3 Fc (Fc fusion, not shown: a dimerising Fc or GST; small tags and cut ends, First round of humanization of MHPD1-A; also called humanized nanobody-Fc fusion protein) VHH: QVQLVESGGGSVQVGGSLTLSCAASGSDPSIYAMGWFRQAPGKEHEFVAGIGWSAATTYYADSVKGRFGISRDNTKNTLALLMNSLKPEDTAIYYCAADLDHSGFDYWGQGTQVTVSS : reported EC50 = ? 0.16

Returns the measured EC50 for the input binder. Input: MHPD1-A-H10 Fc (Fc fusion, not shown: a dimerising Fc or GST; small tags and cut ends, First round of humanization of MHPD1-A; also called humanized nanobody-Fc fusion protein) VHH: QVQLVESGGGSVQPGGSLRLSCAASGSDPSIYAMGWFRQAPGKEHEFVAGIGWSAATTYYADSVKGRFTISRDNTKNTLALLMNSLKPEDTAIYYCAADLDHSGFDYWGQGTLVTVSS 0.32

Request the reported EC50 associated with MHPD1-A Fc (Fc fusion, C-terminal of VHH directly connected to the N-terminal of the human Fc hinge region; also called nanobody-Fc fusion protein; fusion protein; not shown: human Fc fragment with hinge) QVQLVESGGGSVQVGGSLTLSCAASGSDPSIYAMGWFRQAPGKEHEFVAGIGWSAATTYYADSVKGRFGISRDNTKNTVALLMNSLKPEDTAIYYCAADLDHSGFDYWGQGTQVTVSS 0.14

EC50 lookup needed for MHPD1-A-H6 Fc (Fc fusion, not shown: a dimerising Fc or GST; small tags and cut ends, First round of humanization of MHPD1-A; also called humanized nanobody-Fc fusion protein) VHH: QVQLVESGGGSVQVGGSLTLSCAASGSDPSIYAMMWFRQAPGKEHEFVAGIGWSAATTYYADSVKGRFGISRDNTKNTVALLMNSLKPEDTAIYYCAADLDHSGFDYWGQGTQVTVSS , thanks. 2.91

Which EC50 reading was recorded for the binder MHPD1-A-H9 Fc (Fc fusion, not shown: a dimerising Fc or GST; small tags and cut ends, also called humanized nanobody-Fc fusion protein) VHH: QVQLVESGGGSVQPGGSLRLSCAASGSDPSIYAMGWFRQAPGKEHEFVAGIGWSAATTYYADSVKGRFGISRDNTKNTVALLMNSLRAEDTAIYYCAADLDHSGFDYWGQGTLVTVSS ? 0.15
